- Target or test system: T1, IL-11 (Cat. 12225-HNCE, Sino Biological Inc.) (UniProt P20809 22-199, limits assumed)
- T1 sequence (looked up): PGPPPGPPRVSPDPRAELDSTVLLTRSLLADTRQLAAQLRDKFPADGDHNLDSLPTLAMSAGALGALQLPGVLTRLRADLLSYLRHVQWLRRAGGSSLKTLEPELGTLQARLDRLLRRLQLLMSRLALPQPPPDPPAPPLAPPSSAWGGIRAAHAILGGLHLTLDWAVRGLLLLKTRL
- Test summary: competition ELISA, IL-11/IL-11Rα/GP130 complex
Field 'label' (enum: true (1) / false (0)). Set to true (1) when IC50 is strictly under 0.8 µg/mL; else false (0).

{"Binder": "hz8C8-VHm1-m13 + hz8C8-VLm7-m2 (antibody, human IgG1, kappa, V domains shown, human IgG1 constant regions) VH: EVQLVESGGGLVQPGGSLRLSCAASGFTFSSFGMHWVRQAPGKGLEWVAYITPGSNTIYYADTVKGRFTISRDNAKNSLYLQMNSLRAEDTAVYYCAREYYSYDEGFASWGQGTLVTVSS VL: EIVLTQSPATLSLSPGERATLSCSVSDLIPSQYLHWYQQKPGQAPRLLIYDASNLASGIPARFSGSGSGTDFTLTISSLEPEDFAVYYCQQGVDVPFTFGQGTKLEIKR", "Assigned label": "true (1)"}
{"Binder": "hz8C8-VHm1 + hz8C8-VLm6 (antibody, human IgG1, kappa, V domains shown, human IgG1 constant regions) VH: EVQLVESGGGLVQPGGSLRLSCAASGFTFSSFGMHWVRQAPGKGLEWVAYITPGSNTIYYADTVKGRFTISRDNAKNSLYLQMNSLRAEDTAVYYCAREYYSYDEGFAYWGQGTLVTVSS VL: EIVLTQSPATLSLSPGERATLSCSVSSLIPSKYLHWYQQKPGQAPRLLIYRTSNLASGIPARFSGSGSGTDFTLTISSLEPEDFAVYYCQQGVDVPFTFGQGTKLEIKR", "Assigned label": "false (0)"}
{"Binder": "hz8C8-VHm1 + hz8C8-VLm9 (antibody, human IgG1, kappa, V domains shown, human IgG1 constant regions) VH: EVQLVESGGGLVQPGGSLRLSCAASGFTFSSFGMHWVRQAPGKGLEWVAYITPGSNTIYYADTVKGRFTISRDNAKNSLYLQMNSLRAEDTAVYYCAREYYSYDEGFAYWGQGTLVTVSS VL: EIVLTQSPATLSLSPGERATLSCSVSDLIPSQYLAWYQQKPGQAPRLLIYRTSNLASGIPARFSGSGSGTDFTLTISSLEPEDFAVYYCQQGVDVPFTFGQGTKLEIKR", "Assigned label": "true (1)"}
{"Binder": "hz8C8-VHm1 + hz8C8-VLm5 (antibody, human IgG1, kappa, V domains shown, human IgG1 constant regions) VH: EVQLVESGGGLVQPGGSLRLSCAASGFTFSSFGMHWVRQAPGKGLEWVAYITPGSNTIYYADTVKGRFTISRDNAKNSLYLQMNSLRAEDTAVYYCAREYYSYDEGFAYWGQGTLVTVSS VL: EIVLTQSPATLSLSPGERATLSCSVSELLSTNYLHWYQQKPGQAPRLLIYRTSNLASGIPARFSGSGSGTDFTLTISSLEPEDFAVYYCQQGVDVPFTFGQGTKLEIKR", "Assigned label": "false (0)"}
{"Binder": "hz8C8-VHm1 + hz8C8-VLm2 (antibody, human IgG1, kappa, V domains shown, human IgG1 constant regions) VH: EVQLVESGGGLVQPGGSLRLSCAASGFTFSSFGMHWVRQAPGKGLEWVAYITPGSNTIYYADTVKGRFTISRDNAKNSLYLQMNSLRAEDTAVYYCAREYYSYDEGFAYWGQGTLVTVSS VL: EIVLTQSPATLSLSPGERATLSCSVSSSISSKYLHWYQQKPGQAPRLLIYRTSNLASGIPARFSGSGSGTDFTLTISSLEPEDFAVYYCQQGVDVPFTFGQGTKLEIKR", "Assigned label": "false (0)"}
{"Binder": "hz8C8-VHm3 + hz8C8-VL (antibody, human IgG1, kappa, V domains shown, human IgG1 constant regions) VH: EVQLVESGGGLVQPGGSLRLSCAASGFTFSSFGMHWVRQAPGKGLEWVAYITPGSNTTYYADTVKGRFTISRDNAKNSLYLQMNSLRAEDTAVYYCAREYYSYDEGFAYWGQGTLVTVSS VL: EIVLTQSPATLSLSPGERATLSCSVSSSISSNYLHWYQQKPGQAPRLLIYRTSNLASGIPARFSGSGSGTDFTLTISSLEPEDFAVYYCQQGVDVPFTFGQGTKLEIKR", "Assigned label": "false (0)"}
{"Binder": "hz8C8-VHm1 + hz8C8-VLm8 (antibody, human IgG1, kappa, V domains shown, human IgG1 constant regions) VH: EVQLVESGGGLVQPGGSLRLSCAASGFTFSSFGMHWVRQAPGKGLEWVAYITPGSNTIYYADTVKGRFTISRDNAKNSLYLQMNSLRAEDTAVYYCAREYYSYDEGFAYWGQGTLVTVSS VL: EIVLTQSPATLSLSPGERATLSCSVSDLIPSQYLSWYQQKPGQAPRLLIYRTSNLASGIPARFSGSGSGTDFTLTISSLEPEDFAVYYCQQGVDVPFTFGQGTKLEIKR", "Assigned label": "true (1)"}
{"Binder": "hz8C8-VHm1-m2 + hz8C8-VLm7 (antibody, human IgG1, kappa, V domains shown, human IgG1 constant regions) VH: EVQLVESGGGLVQPGGSLRLSCAASGFTFSSFGMHWVRQAPGKGLEWVASITPGSNTIYYADTVKGRFTISRDNAKNSLYLQMNSLRAEDTAVYYCAREYYSYDEGFAYWGQGTLVTVSS VL: EIVLTQSPATLSLSPGERATLSCSVSDLIPSQYLHWYQQKPGQAPRLLIYRTSNLASGIPARFSGSGSGTDFTLTISSLEPEDFAVYYCQQGVDVPFTFGQGTKLEIKR", "Assigned label": "false (0)"}
